In this section, each of the compounds is paired with its reported composite z-score.
- System: Lefty1
- measurement-description: Lefty1 protein binding to printed compounds – biochemical, small-molecule microarray, 635/667 nm fluorescence, primary screen (AID 1139)
- test-settings: fluorescence 635/667, higher = more signal
# output: bare number, no unit

Solved cases (4 shown):
- compound: "CC1CC/C=C\\[C@H]2OC34C=CCN(Cn5nnc6ccccc65)C(=O)[C@H]3N(CCCCCO)C(=O)[C@@H]4C2C(=O)O1 (stereo partly drawn)"
  composite z-score: -0.425
- compound: "[N-]=[N+]=Nc1ccccc1[C@H]1OC(c2ccc(OCCCO)cc2)=N[C@@]1(CCS(=O)(=O)c1ccccc1)C(=O)NCc1ccccc1"
  composite z-score: 0.152
- compound: "Cc1ccc(C2C3C(=O)CC4C(=O)N(c5ccccc5)C(=O)C4C3CN2S(=O)(=O)c2ccc(C)cc2)cc1 (stereo not drawn)"
  composite z-score: 0.0507
- compound: "Cc1ccc(/C=C/C=O)cc1"
  composite z-score: -0.709

O=C1NC(=O)C2C1C=CC(C(O)C=Cc1ccc([N+](=O)[O-])cc1)N2Nc1ccc(Cl)cc1Cl (stereo not drawn) has a reported composite z-score of -0.443

Input CCCCCCCCCCC(O)C1C=CC2C(=O)NC(=O)C2N1Nc1ccc(Cl)cc1Cl (stereo not drawn) . Output composite z-score: -1.14

Data point: [N-]=[N+]=NCc1ccccc1[C@@H]1OC(c2ccc(OCCCO)cc2)=N[C@]1(CCS(=O)(=O)c1ccccc1)C(=O)N1CCOCC1 ; composite z-score = 0.186

Reported composite z-score of C=CC[C@@]1(C(=O)N2CCCCC2)N=C(c2ccc(OCCCO)cc2)O[C@@H]1c1ccccc1N=[N+]=[N-] : 0.0928

From: PubChem BioAssay
